Catalogue of Percentage of release efficiency (%) Heart tissue readings, one per entry.
ASSAY REMARKS: Homogenate activation efficiency, heart tissue (Examples 28, 37)
Format: in vitro ADME
ASSAY CONTEXT: pH 5.0, 37° C., 2 h; Table 5
Where a SMILES comes first, the peptide text is derived from it. The star is where a group is joined. NEt(2-(20S-CPT-7-yl)ethyl) = CCN(CCc1c2c(nc3ccccc13)-c1cc3c(c(=O)n1C2)COC(=O)[C@]3(O)CC)*; Belotecan = CC[C@@]1(O)C(=O)OCc2c1cc1n(c2=O)Cc2c-1nc1ccccc1c2CCN(C(C)C)*; X1 = CC[C@@]1(O)C(=O)OCc2c1cc1n(c2=O)Cc2c-1nc1ccccc1c2CCN(C1CCC1)*; X4 = CCCN(CCc1c2c(nc3ccccc13)-c1cc3c(c(=O)n1C2)COC(=O)[C@]3(O)CC)*; X7 = CC[C@@]1(O)C(=O)OCc2c1cc1n(c2=O)Cc2c-1nc1ccccc1c2CCN(C)*; Propanoyl(3-maleimido) = O=C1C=CC(=O)N1CCC(=O)*; PEG6 = NCCOCCOCCOCCOCCOCCOCCC(=O)O
Numeric only. Scale: %

response.value for CC[C@@]1(O)C(=O)OCc2c1cc1n(c2=O)Cc2c-1nc1ccccc1c2CCN(C(=O)CNC(=O)[C@H](Cc1ccccc1)NC(=O)CNC(=O)CNC(=O)CCOCCOCCOCCOCCOCCOCCNC(=O)CCN1C(=O)C=CC1=O)C(C)C [MI-6PEG-GGFG-Belotecan] ({Propanoyl(3-maleimido)-PEG6}-GGFG-Belotecan) (field: Percentage of release efficiency (%) Heart tissue) = 1.9

response.value for CC[C@@]1(O)C(=O)OCc2c1cc1n(c2=O)Cc2c-1nc1ccccc1c2CCN(C)C(=O)CNC(=O)[C@H](Cc1ccccc1)NC(=O)CNC(=O)CNC(=O)CCOCCOCCOCCOCCOCCOCCNC(=O)CCN1C(=O)C=CC1=O [MI-6PEG-GGFG-D1] ({Propanoyl(3-maleimido)-PEG6}-GGFG-X7) (field: Percentage of release efficiency (%) Heart tissue) = 1.7

response.value for CCN(CCc1c2c(nc3ccccc13)-c1cc3c(c(=O)n1C2)COC(=O)[C@]3(O)CC)C(=O)CNC(=O)[C@H](CC(N)=O)NC(=O)[C@H](C)NC(=O)CNC(=O)CCOCCOCCOCCOCCOCCOCCNC(=O)CCN1C(=O)C=CC1=O [MI-6PEG-GANG-D2] ({Propanoyl(3-maleimido)-PEG6}-GANG-{NEt(2-(20S-CPT-7-yl)ethyl)}) (field: Percentage of release efficiency (%) Heart tissue) = 1.7

response.value for CC[C@@]1(O)C(=O)OCc2c1cc1n(c2=O)Cc2c-1nc1ccccc1c2CCN(C(=O)CNC(=O)[C@H](CC(N)=O)NC(=O)[C@H](C)NC(=O)[C@H](C)NC(=O)CCOCCOCCOCCOCCOCCOCCNC(=O)CCN1C(=O)C=CC1=O)C1CCC1 [MI-6PEG-AANG-D7] ({Propanoyl(3-maleimido)-PEG6}-AANG-X1) (field: Percentage of release efficiency (%) Heart tissue) = 2

response.value for CCCN(CCc1c2c(nc3ccccc13)-c1cc3c(c(=O)n1C2)COC(=O)[C@]3(O)CC)C(=O)CNC(=O)[C@H](CC(N)=O)NC(=O)[C@H](C)NC(=O)[C@H](C)NC(=O)CCOCCOCCOCCOCCOCCOCCNC(=O)CCN1C(=O)C=CC1=O [MI-6PEG-AANG-D3] ({Propanoyl(3-maleimido)-PEG6}-AANG-X4) (field: Percentage of release efficiency (%) Heart tissue) = 3.6

response.value for CC[C@@]1(O)C(=O)OCc2c1cc1n(c2=O)Cc2c-1nc1ccccc1c2CCN(C(=O)CNC(=O)[C@H](Cc1ccccc1)NC(=O)CNC(=O)CNC(=O)CCOCCOCCOCCOCCOCCOCCNC(=O)CCN1C(=O)C=CC1=O)C1CCC1 [MI-6PEG-GGFG-D7] ({Propanoyl(3-maleimido)-PEG6}-GGFG-X1) (field: Percentage of release efficiency (%) Heart tissue) = 2.9
